- METHOD NOTES: Primary qHTS for delayed death inhibitors of the malarial parasite plastid, 96 hour incubation
- CONDITION LABEL: P. falciparum luciferase reporter growth; series mostly up to 28.7 µM
- Source text: The goal of this screen is to discover new antimalarial compounds that act by inhibiting the development of the apicoplast in the malarial parasite Plasmodium falciparum. […] We have developed a cell-based assay that measures parasite growth based on the expression of an integrated copy of a firefly luciferase reporter. […] Growth inhibition is detected by a decrease in luciferase activity. […]
The whole screen tested about 320,000 compounds, of which about 22,000 (6.9%) were called active. Roughly 27% stayed inconclusive and do not appear here. Calls follow the shape of the dose curve; as a rule, active = well fitted inhibition curve with a large enough effect; inconclusive = small, poorly fitted or top-dose-only effect, or another doubt; inactive = no such curve, though single readings can be large or run the other way. Only a selection was taken, and actives are over-represented in it overall.
Labels: true for active, false for inactive

compound=Cc1c(C(N)=O)sc2ncn(CCOc3ccccc3)c(=O)c12 group_label=false
compound=O=C1CCN(Cc2ccc([N+](=O)[O-])cc2)CCN1[C@H](CO)Cc1ccccc1 group_label=false
compound="CCC(C(=O)OC)n1cnc2c(oc3ccccc32)c1=O (centres undefined)" group_label=false
compound=O=C(Nc1nnc(CCN2CCCCC2)s1)c1cccc(Cl)c1 group_label=false
compound=Cc1ccc(NC(=O)Nc2ccccc2)c(Br)c1 group_label=true
compound="O=C(CCN1CCCO1)N1CCCC(N2CCN(c3cccc(C(F)(F)F)c3)CC2)C1 (centres undefined)" group_label=false
compound=Cc1cc2ncn(CCCCOc3ccccc3)c2cc1C group_label=true
compound="COc1cccc(-c2noc(C3CCCN(C(=O)c4ccc(F)cc4)C3)n2)c1 (centres undefined)" group_label=false
compound=COc1ccc(CCNCc2c(-c3ccccc3)n(C)c3ccccc23)cc1 group_label=true
compound=O=C1CN(C(=O)c2cc(F)cc(F)c2)c2ccccc2N1 group_label=false
compound="O=C(NCC(c1cccs1)N1CCOCC1)c1cc(Cl)ccc1[N+](=O)[O-] (centres undefined)" group_label=false
compound=Cc1ccc(NC(=O)CN(C)C(=O)Cn2nnc(-c3ccccc3)n2)cc1 group_label=false
compound=Cc1ccc(C(=O)C[n+]2cc(-c3ccccc3)n3c2CCCCC3)cc1 group_label=true
compound=COc1ccc(-c2c3c(=O)n(C)c(=O)n(C)c3cn2-c2cccc(OC)c2)cc1 group_label=false
compound=Cc1cccc[n+]1CC(=O)c1ccccc1 group_label=false
compound="CC(C)(C)OC(=O)NC(Cc1ccccc1)C(=O)NC(CSC1CCCCO1)C(=O)NN (centres undefined)" group_label=false
compound=Cc1ccc(C(=O)N2CCCC(c3ccccc3)=N2)cc1 group_label=false
compound=CC(=O)Nc1ccc(NC(=O)COc2ccccc2C(=O)Nc2cccc(Cl)c2Cl)cc1 group_label=false
compound=O=C(CCn1c(SCC(=O)c2ccccc2)nc2ccccc2c1=O)NCc1ccc(F)cc1 group_label=false
compound=O=C(O)c1ccccc1N=N/C(=N/Nc1cc(S(=O)(=O)O)ccc1O)c1ccccc1 group_label=false
compound=CC1CCN(CCC(=O)Nc2ccccc2)CC1 group_label=false
compound=CCc1nn(CC(=O)N2CCN(c3cc(C)ccc3C)CC2)c(=O)c2cc3occc3n12 group_label=false
compound=O=C(NCCCn1ccnc1)c1cc2c(s1)CCCC2 group_label=false
compound="O=C(Nc1cccc(F)c1)NC1CCCc2ccccc21 (centres undefined)" group_label=false
compound=COc1ccc(SC[C@H](Cc2ccccc2)N2CCN(CCc3ccccc3)CCC2=O)cc1 group_label=true
compound="CC(=O)Nc1ccc(NC(=O)C(C)OC(=O)C2CC(=O)N(CCc3ccccc3)C2)cc1 (centres undefined)" group_label=false
compound=CCCCn1c(N)c(N2CCOCC2)c(=O)n(CC(=O)NCCc2ccccc2)c1=O group_label=false
compound=O=C(Cc1ccc(Cl)cc1)NC(=S)Nc1ccccc1O group_label=false
compound=N#CCSc1nc2ccc(N3CCOCC3)cc2c(=O)n1CCc1ccccc1 group_label=true
compound=Cc1ccc(C)c(Cn2cnc3c(oc4ccccc43)c2=O)c1 group_label=true
compound="CCOc1ccc(NC(=O)CC(Cc2ccc(Cl)cc2)C(=O)O)cc1 (centres undefined)" group_label=false
compound="Cc1ccc(N2CC(C(=O)Nc3ccc(S(=O)(=O)N4CCCC4)cc3)CC2=O)cc1C (centres undefined)" group_label=false
compound=CCOc1ccc2c(c1)c(=O)c(S(=O)(=O)c1ccc(C)cc1)cn2CC group_label=false
compound=COc1ccc(OCCCC(=O)NCCc2ccccc2)cc1 group_label=false
compound="O=C(NCc1cc(F)cc(C(F)(F)F)c1)C1CCC(=O)N(C2CCCC2)C1 (centres undefined)" group_label=false
compound=COCCOCCn1cnc2ccccc21 group_label=false
compound=O=C(/C=C/c1cccs1)c1cc(Cl)ccc1OC(=O)N1CCOCC1 group_label=true
compound=Cc1ccc(-c2c[n+](CC(=O)Nc3ccccc3)c3n2CCC3)cc1 group_label=true
compound=CN(CC(=O)Nc1ccc(Cl)cc1)C(=O)CNC(=O)c1ccc2ccccc2c1 group_label=false
compound=Nc1cc(N2CCCCCC2)c2nonc2c1[N+](=O)[O-] group_label=false
compound="O=C(CC1C(=O)NCCN1CC(c1ccccc1)c1ccccc1)NCC1CCOCC1 (centres undefined)" group_label=false
compound=COc1ccc(-c2cc(C(=O)n3cnc4ccccc43)c3ccccc3n2)cc1 group_label=false
compound="O=C(Nc1cccc(Cl)c1Cl)c1ccccc1NC(=O)C1CC=CCC1C(=O)O (centres undefined)" group_label=true
compound=O=C1CC[C@H](O)CCN1[C@H](CSc1ccc(Br)cc1)Cc1ccccc1 group_label=false
